Origin of the recorded values: the supplement of paper PMC7877785

Assay: self-splicing fitness, log relative to wild type (ln ratio); higher = more splicing; Tetrahymena group I intron in knt gene, E. coli kanamycin selection, DiMSum; sequences stand for … in CUCUCU…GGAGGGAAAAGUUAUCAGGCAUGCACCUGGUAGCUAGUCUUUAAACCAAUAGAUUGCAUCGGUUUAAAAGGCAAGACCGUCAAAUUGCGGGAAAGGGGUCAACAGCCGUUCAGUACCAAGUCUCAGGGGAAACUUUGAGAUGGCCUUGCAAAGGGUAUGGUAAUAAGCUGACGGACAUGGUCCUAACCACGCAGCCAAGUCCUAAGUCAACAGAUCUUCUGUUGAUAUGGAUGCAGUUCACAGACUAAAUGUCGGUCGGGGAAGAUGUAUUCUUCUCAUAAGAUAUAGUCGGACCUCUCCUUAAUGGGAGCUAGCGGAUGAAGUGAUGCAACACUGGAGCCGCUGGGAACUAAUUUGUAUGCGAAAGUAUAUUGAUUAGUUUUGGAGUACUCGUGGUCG;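 note: selection with 25 µg/mL kanamycin versus none on LB agar overnight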
Details: 30 °C
readout: self-splicing fitness (ln)
Hey, just send me the number, nothing else.

Record excerpt, results attached:
{"sequence.string": "CUAUAGCAAUAUUACGAAUC", "self-splicing fitness (ln)": -2.05}
{"sequence.string": "GCAUAGCAAUAUUACGCACG", "self-splicing fitness (ln)": -2}
{"sequence.string": "CGUUAGCAAUAUUACGGUAC", "self-splicing fitness (ln)": -2.98}

Problem: Requested field: self-splicing fitness (ln). Item: AACGAGCAAUAUUACGAUAG
Solution: -3.04

Problem: Record: CCAGAGCAAUAUUACGGGCA
Solution: -2.92

----------
Experiment: self-splicing fitness, log relative to wild type (ln ratio); higher = more splicing; Tetrahymena group I intron in knt gene, E. coli kanamycin selection, DiMSum; sequences stand for … in CUCUCU…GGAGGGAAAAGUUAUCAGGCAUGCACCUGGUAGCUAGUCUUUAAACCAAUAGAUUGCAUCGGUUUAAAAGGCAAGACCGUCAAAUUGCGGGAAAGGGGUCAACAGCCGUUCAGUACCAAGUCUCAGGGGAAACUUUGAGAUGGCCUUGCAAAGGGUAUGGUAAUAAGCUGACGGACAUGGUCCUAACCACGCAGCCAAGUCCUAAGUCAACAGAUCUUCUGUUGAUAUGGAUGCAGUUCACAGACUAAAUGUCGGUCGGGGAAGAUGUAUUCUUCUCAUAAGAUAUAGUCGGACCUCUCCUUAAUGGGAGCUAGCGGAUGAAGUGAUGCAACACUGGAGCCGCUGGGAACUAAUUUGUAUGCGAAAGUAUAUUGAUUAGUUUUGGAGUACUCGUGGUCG
Conditions: 37 °C
readout: self-splicing fitness (ln)
Hey, just send me the number, nothing else.

Record excerpt, results attached:
{"sequence.string": "CGGAAGCAAUAUUACGUUAG", "readout": "self-splicing fitness (ln)", "measured.value": -0.697}
{"sequence.string": "CACGAGCAAUAUUACGUAUC", "readout": "self-splicing fitness (ln)", "measured.value": -2.81}
{"sequence.string": "AGGAAGCAAUAUUACGCACU", "readout": "self-splicing fitness (ln)", "measured.value": -1.35}

Problem: Requested field: self-splicing fitness (ln). Item: UGCCAGCAAUAUUACGCGGG
Solution: -2.44

Problem: Record: AAGUAGCAAUAUUACGACAU
Solution: -0.0429

Problem: Record: AAGGAGCAAUAUUACGGACG
Solution: -0.216

Problem: Record: ACUAAGCAAUAUUACGCGGA
Solution: -0.956

Problem: Record: AUCCAGCAAUAUUACGUGUU
Solution: -2.45

Problem: Record: ACUCAGCAAUAUUACGCUCC
Solution: -0.848
